// data source = PubChem BioAssay (NCI)

System: HS 578T breast
Assay: NCI-60 one-dose screen, 48 h
Details: 10 µM unless noted
Compounds without any hit were thinned out: in the full panel of roughly 83,000, 20% have a hit. Activity calls are given as the source filed them. The calls were made as follows: active = growth percent below 10; inactive = the rest.
Mark one answer only. Choices: true for active, false for inactive

Task item: Kindly provide the recorded test outcome for the following compound: CCOC(=O)C1=C(C)NC(=O)NC1c1ccc(OCC(=O)N/N=C/c2ccc(Cl)cc2)cc1 (stereo unspecified)
Reply: false

Task item: Kindly provide the recorded test outcome for the following compound: CC1Cc2c(N(C)C)ncnc2N(C)c2ccc(Cl)cc21 (stereo unspecified)
Reply: true

Task item: Kindly provide the recorded test outcome for the following compound: C/C(=N\NC(=O)CC#N)c1cc2cc(Cl)ccc2o1
Reply: false

Task item: Kindly provide the recorded test outcome for the following compound: O=C(Nc1ccc(I)cc1)c1cc([N+](=O)[O-])ccc1O
Reply: false

Task item: Kindly provide the recorded test outcome for the following compound: Cc1cccc2cc(/C=C/C(=O)/C=C/c3ccc(Cl)cc3)c(=O)[nH]c12
Reply: false

Task item: Kindly provide the recorded test outcome for the following compound: c1ccc(CCn2nnc3c(Nc4ccc(N5CCOCC5)cc4)ncnc32)cc1
Reply: false

Task item: Kindly provide the recorded test outcome for the following compound: CC1CCN(C(=O)CSc2nc3sc4c(c3c(=O)[nH]2)CCCC4)CC1
Reply: false

Task item: Kindly provide the recorded test outcome for the following compound: Cc1sc(N=Nc2ccc(N(C)C)cc2)[n+]([O-])c1C
Reply: false

Task item: Kindly provide the recorded test outcome for the following compound: COC(=O)c1ccc(C)cc1
Reply: false

Task item: Kindly provide the recorded test outcome for the following compound: COc1ccc2c(c1)C(=O)/C(=C/c1ccc(O)cc1)O2
Reply: false

Task item: Kindly provide the recorded test outcome for the following compound: N#Cc1ncc(-c2ccc(F)c(F)c2F)c(NC2CCCCCC2)n1
Reply: false

###

Test system: TK-10 renal
Assay: NCI-60 one-dose screen, 48 h (100 = growth as untreated, 0 = no growth, -100 = all killed)
Conditions: 10 µM unless noted
About 83,000 compounds went through this panel and 20% of them were active in at least one assay; those are over-represented in the sample as a whole.
Please respond with reported growth for every item in the list.
Response body: numeric value in %, unit text excluded.

TK-10 renal data for COc1cc2nc(N3CCC[C@@H](NC4=CC(=O)c5ccccc5C4=O)C3)nc(N)c2cc1OC ; its growth: -49.3

TK-10 renal data for Cc1cccc(NC(=O)c2sc3nc4c(cc3c2N)CCCC4)c1 ; its growth: 70.7

TK-10 renal data for C=CCOc1ccc(/C(O)=C2\C(=O)C(=O)N(c3nccs3)C2c2ccccc2F)cc1 (stereo unspecified) ; its growth: 89.1

TK-10 renal data for COC(=O)CCCCCN=Cc1c(O)c(O)c(C(C)C)c2cc(C)c(-c3c(C)cc4c(C(C)C)c(O)c(O)c(C=NCCCCCC(=O)OC)c4c3O)c(O)c12 ; its growth: 3.95

TK-10 renal data for O=C1NCC(c2cc3ccccc3[nH]c2=O)Nc2ccccc21 (stereo unspecified) ; its growth: 87.8

TK-10 renal data for O=C(Nc1cccc(Cl)c1)c1cc([N+](=O)[O-])ccc1O ; its growth: 61

TK-10 renal data for O=C(Nc1ccccc1)OCC1OCOC(COC(=O)Nc2ccccc2)C1OC(=O)Nc1ccccc1 (stereo unspecified) ; its growth: 83.3

TK-10 renal data for O=S(=O)(NCCCNc1cc(-c2cn(-c3ccccc3)nc2-c2cccc(O)c2)ccn1)c1ccc(C(F)(F)F)cc1 ; its growth: 77.7

TK-10 renal data for NCCSC(c1ccccc1)(c1ccccc1)c1ccccc1 ; its growth: 54.6

TK-10 renal data for Cc1ccc(C2=NN(c3ccc(S(N)(=O)=O)cc3)C(c3cn(-c4ccccc4)nc3-c3ccccc3)C2)cc1 (stereo unspecified) ; its growth: 84.2

TK-10 renal data for COc1ccc(C2CC(c3cccs3)=NN2c2ccc(S(=O)(=O)NC(=O)NCc3cccc(OC)c3)cc2)cc1 (stereo unspecified) ; its growth: 96

TK-10 renal data for C=CC(=O)N[C@H](/C=C/C(=O)OCC)Cc1ccc(-c2cc(Cl)cc(Cl)c2)cc1 ; its growth: 89.1

TK-10 renal data for O=S(=O)(c1ccccc1)n1ccc(-c2ccc3c(c2)CCO3)n1 ; its growth: 76.2

TK-10 renal data for COc1cccc2cc(-c3cc4ccccc4[nH]3)c(=NC(=O)c3ccc(Cl)cc3)oc12 ; its growth: 96.6

TK-10 renal data for COc1ccc(/C=C2\C(=O)N(C(=O)c3csc(NC(C)=O)n3)N=C2C)cc1 ; its growth: 102

TK-10 renal data for COc1cccc(-c2nc3sccn3c2-c2ccnc(NCCCNS(=O)(=O)c3ccc(F)cc3)n2)c1 ; its growth: 66.2

TK-10 renal data for CC(Br)C(O)c1cc2c(cc1Br)OCO2 (stereo unspecified) ; its growth: 114

TK-10 renal data for Cc1nc2sccn2c1-c1csc(Nc2ccccc2Cl)n1 ; its growth: 61

TK-10 renal data for O=C(Cc1n[nH]c(=O)c2ccccc12)OCc1c(Cl)cccc1Cl ; its growth: 99

TK-10 renal data for O=C(CCC(=O)OC1CCCC1)OC1CCCC1 ; its growth: 97.8

TK-10 renal data for COc1ccc(C(=O)/C=C/c2cc(C(=O)c3cc(OC)c(OC)c(OC)c3)ccc2OC)cc1 ; its growth: 107

###

Tested on: SNB-19 CNS
Test: NCI-60 one-dose screen, 48 h (100 = growth as untreated, 0 = no growth, -100 = all killed)
Conditions: 10 µM unless noted
About 83,000 compounds went through this panel and 20% of them were active in at least one assay; those are over-represented in the sample as a whole.
Attribute measured: growth (%)
Response body: numeric value in %, unit text excluded.

SNB-19 CNS data for O=S(=O)(c1ccccc1)n1ccc(-c2ccc3c(c2)CCO3)n1 ; its growth: 83.4

SNB-19 CNS data for O=C1C2=C(C(=O)c3c(O)ccc(O)c31)N(c1cccnc1)Cc1ccccc1O2 ; its growth: 5.25

SNB-19 CNS data for COc1cc2c(cc1OC)C1(C)N(CC2)C(=O)OC1(C)C (stereo unspecified) ; its growth: 105

SNB-19 CNS data for CC1=NN2C(=NC3=C(CCC/C3=C\c3ccc(Cl)cc3)C2c2ccc(Cl)cc2)S1 (stereo unspecified) ; its growth: 84.3

SNB-19 CNS data for NC(N)=NC(N)=Nc1ccccc1-c1ccccc1 ; its growth: 111

SNB-19 CNS data for COc1cc(CNC(=O)CCSc2nc3ccccc3c(=O)n2Cc2cc(OC)c(OC)c(OC)c2)cc(OC)c1OC ; its growth: 56

SNB-19 CNS data for CN(C)c1nc(N)c(N=O)c(N)n1 ; its growth: 112

SNB-19 CNS data for Clc1nc2ccccc2nc1CI ; its growth: 103

SNB-19 CNS data for O=S(=O)(NCCCNc1cc(-c2cn(-c3ccccc3)nc2-c2cccc(O)c2)ccn1)c1ccc(C(F)(F)F)cc1 ; its growth: 51.4

SNB-19 CNS data for Cc1cnc(NC(=O)C(Cc2ccccc2)NC(=O)c2ccccc2)s1 (stereo unspecified) ; its growth: 93.3

SNB-19 CNS data for COc1ccc(OC)c(C(=O)c2oc3ccc(Br)cc3c2N)c1 ; its growth: 38.3

###

Test system: TK-10 renal
Assay: NCI-60 one-dose screen, 48 h
Details: 10 µM unless noted
The panel holds about 83,000 compounds, 20% with a hit somewhere; the sample as a whole holds those more often. Calls of active or inactive are those of the source. Rule for the calls: active = growth percent below 10; inactive = the rest.
Mark one answer only. Choices: active, inactive

Task item: Kindly provide the recorded test outcome for the following compound: COc1cc(-c2cc(/C=C3\CCCCC3=O)[nH]n2)cc(OC)c1OC
Reply: inactive

Task item: Kindly provide the recorded test outcome for the following compound: COc1ccc(N=C2NN=C(c3ccc(F)cc3)CS2)cc1OC
Reply: inactive

Task item: Kindly provide the recorded test outcome for the following compound: O=C(Nc1ccc(F)cc1)c1cc([N+](=O)[O-])ccc1O
Reply: inactive

Task item: Kindly provide the recorded test outcome for the following compound: CCN1C(=S)N(CC)C2Nn3c(s/c(=C4\C(=O)N(C)c5ccccc54)c3=O)=NC21 (stereo unspecified)
Reply: inactive

Task item: Kindly provide the recorded test outcome for the following compound: C=C1C(=O)O[C@H]2[C@H]1CC/C(Cn1cc(-c3ccc(N)cc3)nn1)=C\CC[C@@]1(C)O[C@@H]21
Reply: inactive

Task item: Kindly provide the recorded test outcome for the following compound: COc1ccc(OC)c(-c2ccc(-c3ccccc3N)c3[nH]c4ccccc4c23)c1
Reply: inactive

Task item: Kindly provide the recorded test outcome for the following compound: CCCCCCCC/C=C\CCCCCCCCOc1ccccc1CCOP(=O)(O)OCC[N+](C)(C)C
Reply: active

Task item: Kindly provide the recorded test outcome for the following compound: COc1ccc(/C(=N\O)c2cc(OC)c(OC)c(OC)c2)c(OC)c1N
Reply: active

Task item: Kindly provide the recorded test outcome for the following compound: NC(=O)NC(=O)/C=C/C(=O)OCCCl
Reply: inactive

Task item: Kindly provide the recorded test outcome for the following compound: COc1ccc2c(c1)NC(=O)CN2c1nc(NC2CC2)nc2ccccc12
Reply: inactive

Task item: Kindly provide the recorded test outcome for the following compound: CCSc1nnc(Nc2ccc(C(C)C)cc2)s1
Reply: inactive

Task item: Kindly provide the recorded test outcome for the following compound: COc1ncc(-c2ccc3ncnc(Nc4cccc(Cl)c4)c3c2)cc1NS(=O)(=O)C1CC1
Reply: active

Task item: Kindly provide the recorded test outcome for the following compound: CCCCCCCCCCCCOB(OCCCCCCCCCCCC)OCCCCCCCCCCCC
Reply: inactive

Task item: Kindly provide the recorded test outcome for the following compound: CCCCCCCCCCCCNC(=S)N/N=C/c1ccc(Cl)c(Cl)c1
Reply: inactive

Task item: Kindly provide the recorded test outcome for the following compound: CCOC(=O)CC(C#N)(CC(=O)OCC)C(=O)OCC
Reply: inactive

Task item: Kindly provide the recorded test outcome for the following compound: CCN(CC)CCC(=O)c1cccc2ccccc12
Reply: inactive

Task item: Kindly provide the recorded test outcome for the following compound: COC(=O)c1ccc2nc(-c3cc4ccccc4n3C)n(CCCCOc3cc4c(cc3OC)C(=O)N3CCC[C@H]3C=N4)c2c1
Reply: active

Task item: Kindly provide the recorded test outcome for the following compound: Cn1c(=O)c2c(nc3n2CCN(CCc2ccc(OCCN4CCOCC4)cc2)C3)n(C)c1=O
Reply: inactive

Task item: Kindly provide the recorded test outcome for the following compound: Cc1ccc2c(c1)C(=O)C(c1c(-c3[nH]c(=O)c4ccc(C)cc4c3O)c(O)c3ccccc3c1O)=NC2=O
Reply: inactive

Task item: Kindly provide the recorded test outcome for the following compound: COc1ccc2c(c1)C(=O)/C(=C/c1ccc(O)cc1)O2
Reply: inactive

Task item: Kindly provide the recorded test outcome for the following compound: Cc1cccc2cc(/C=C/C(=O)/C=C/c3ccc(Cl)cc3)c(=O)[nH]c12
Reply: inactive
